Kindly state relative integration efficiency (log2) for each of the entries shown.
System: VchCAST RNA-guided transposition machinery (E. coli BL21(DE3) host, lacZ target)
protocol.text: relative integration efficiency (T-LR orientation) vs wild-type transposon end (log2 (normalized fold change)); transposon end mutated: right end (5 bp flank + 75 bp right end); higher = more efficient transposition
Numbers only.

[
  {
    "input.sequence": "ACATTTGTTGATACAACCATAAAATGATAATTACACCCATAAATTGATAATTATCACACCCATAAATTGATATTGCCTCTGATCAAATTGTGAGCGGATAACAATTTAGTCAGACCAGCACCGACAC",
    "relative integration efficiency (log2)": 0.00708
  },
  {
    "input.sequence": "ACATTTGTTGATACAACCATAAAGTGATATTTACAACCATAAAATGATAATTATCACACCCATAAATTGATATTGCCTCTGATCATAGTCAGACCAACATTGCTACGACCCGTATTCGCACCGACAC",
    "relative integration efficiency (log2)": -0.097
  },
  {
    "input.sequence": "ACATTTCTTCATACAACCATAAAATGATAATTACACCCATAAATGGATCATTATCACACCCAATTTAACTATAACGCTCTGATCATAGTCAGACCAACATTGCTACGACCCGTATTCGCACCGACAC",
    "relative integration efficiency (log2)": -3.69
  },
  {
    "input.sequence": "ACATTTGTTGATACATGCATAAAATGATAATTACACCCATAAATTGATAATTATCACACCCATAAATTGATATTGCCTCTGATCATAGTCAGACCAACATTGCTACGACCCGTATTCGCACCGACAC",
    "relative integration efficiency (log2)": -0.66
  },
  {
    "input.sequence": "ACATTTGTTGATACAACCATAAAATGATAATTACACCCATAAATTGATAATTATCACACCCATAAATTGATATTGCCTCTGATCATAGTCTTGTGAGCGGATAACAAAGACCAACATGCACCGACAC",
    "relative integration efficiency (log2)": -0.0553
  },
  {
    "input.sequence": "ACATTTGTTGATACAACCATAAAATGATAATTAATAATTATTTATAATCAGCAACTTAACCACAACACCCATAAATTGATAATTATCAACAAACGCCCGGTCGCGGTACTCTGATCATAGTCAGACC",
    "relative integration efficiency (log2)": -0.0981
  },
  {
    "input.sequence": "ACATTTGTTGATACAACCATAAAATGATAATTACTCTGATCATAGTCAGACACCCATAAATTGATAATTATCACACCCATAAATTGATATTGCCCAACATTGCTACGACCCGTATTCGCACCGACAC",
    "relative integration efficiency (log2)": -0.838
  },
  {
    "input.sequence": "ACATTTGTTCATACAACCATAAAACGATAATTACACCCATAAATTGATCATTATCACACCCAATTTAACTATAACGCTCTGATCATAGTCAGACCAACATTGCTACGACCCGTATTCGCACCGACAC",
    "relative integration efficiency (log2)": -0.162
  }
]

Problem: Give the measured relative integration efficiency (log2) of ACATTTGTTGATACACCCATAAATTGATATTGCCAACCATAAGTTGATATTTTTCAGTGGGTATTTAACTATAACGCTCTGATCATAGTCAGACCAACATTGCTACGACCCGTATTCGCACCGACAC .
Solution: 2.3
